Parameter: Activity. Scope: all listed entries.
- System: 3T3-L1
- Assay Method Text: Insulin-sensitizing activity; triglyceride accumulation from insulin regulated differentiation of 3T3-L1 cells at 1 uM expressed as percent activity of pioglitazone
- Type: functional, Mus musculus
Assay Readout: Activity

compound="CC(C)[C@H]1CC[C@H](C(=O)N[C@H](Cc2ccccc2)C(=O)O)CC1 [NATEGLINIDE]" assay_value=6%
compound="Cc1oc(-c2ccccc2)nc1CCOc1ccc(CC(CC(=O)N2C[C@H]3CCCC[C@H]3C2)C(=O)O)cc1 (some centres not stated)" assay_value=45%
compound=CCc1ccc(CCOc2ccc(/C=C(\CC(=O)N3C[C@H]4CCCC[C@H]4C3)C(=O)O)cc2)nc1 assay_value=20%
compound=Cc1oc(C2CCCCC2)nc1CCOc1ccc(/C=C(\CC(=O)N2C[C@H]3CCCC[C@H]3C2)C(=O)O)cc1 assay_value=83%
compound=CN(CCOc1ccc(/C=C(\CC(=O)N2C[C@H]3CCCC[C@H]3C2)C(=O)O)cc1)c1nc2ccccc2o1 assay_value=121%
compound=CCc1ccc(CCOc2ccc(C[C@H](CC(=O)N3C[C@H]4CCCC[C@H]4C3)C(=O)O)cc2)nc1 assay_value=17%
compound=CN(CCOc1ccc(/C=C(\CC(=O)N2C[C@H]3CCCC[C@H]3C2)C(=O)O)cc1)c1ccccn1 assay_value=87%
compound=CCc1ccc(CCOc2ccc(C[C@@H](CC(=O)N3C[C@H]4CCCC[C@H]4C3)C(=O)O)cc2)nc1 assay_value=4%
compound=O=C(O)/C(=C\c1ccc(OCc2ccc(C(F)(F)F)cc2)cc1)CC(=O)N1C[C@H]2CCCC[C@H]2C1 assay_value=15%
compound=O=C(O)/C(=C/c1ccc(OCCn2ccc3ccccc32)cc1)CC(=O)N1C[C@H]2CCCC[C@H]2C1 assay_value=9%
compound=O=C(O)/C(=C\c1ccc(OCCCc2ccc(C(F)(F)F)cc2)cc1)CC(=O)N1C[C@H]2CCCC[C@H]2C1 assay_value=4%
compound="CCc1ccc(CCOc2ccc(CC(CC(=O)N3C[C@H]4CCCC[C@H]4C3)C(=O)O)cc2)nc1 (some centres not stated)" assay_value=8%
compound=Cc1oc(-c2ccncc2)nc1CCOc1ccc(/C=C(\CC(=O)N2C[C@H]3CCCC[C@H]3C2)C(=O)O)cc1 assay_value=93%
compound="CCc1ccc(CCOc2ccc(CC3SC(=O)NC3=O)cc2)nc1 (configuration not stated) [PIOGLITAZONE]" assay_value=100%
compound=Cc1oc(-c2ccccc2)nc1CCOc1ccc(/C=C(\CC(=O)N2C[C@H]3CCCC[C@H]3C2)C(=O)O)cc1 assay_value=103%
compound=O=C(O)/C(=C\c1ccc(OCCc2ccc(C(F)(F)F)cc2)cc1)CC(=O)N1C[C@H]2CCCC[C@H]2C1 assay_value=5%
compound="CCc1ccc(CCOc2ccc(CC(NC(=O)[C@H]3CC[C@H](C(C)C)CC3)C(=O)O)cc2)nc1 (some centres not stated)" assay_value=2%

###

- Assay Method Text: Insulin-releasing activity in HIT-T15 cells in the presence of 16.7 mM glucose at 10 uM expressed as percent activity of nateglinide
- Type: functional, Cricetulus griseus
Assay Readout: Activity (%)

molecule="CCc1ccc(CCOc2ccc(CC(CC(=O)N3C[C@H]4CCCC[C@H]4C3)C(=O)O)cc2)nc1 (some centres undefined)" assay_readout=Activity assay_value=68
molecule=O=C(O)/C(=C\c1ccc(OCCCc2ccc(C(F)(F)F)cc2)cc1)CC(=O)N1C[C@H]2CCCC[C@H]2C1 assay_readout=Activity assay_value=130
molecule="CCc1ccc(CCOc2ccc(CC(NC(=O)[C@H]3CC[C@H](C(C)C)CC3)C(=O)O)cc2)nc1 (some centres undefined)" assay_readout=Activity assay_value=33
molecule=O=C(O)/C(=C/c1ccc(OCCn2ccc3ccccc32)cc1)CC(=O)N1C[C@H]2CCCC[C@H]2C1 assay_readout=Activity assay_value=105

###

- Assay Method Text: Insulin-releasing activity in HIT-T15 cells in the presence of 16.7 mM glucose at 10 uM expressed as percent activity of nateglinide
- Format: functional, Cricetulus griseus
Assay Readout: Activity (%)

given_smiles=O=C(O)/C(=C\c1ccc(OCCc2ccc(C(F)(F)F)cc2)cc1)CC(=O)N1C[C@H]2CCCC[C@H]2C1 assay_value=93
given_smiles=CN(CCOc1ccc(/C=C(\CC(=O)N2C[C@H]3CCCC[C@H]3C2)C(=O)O)cc1)c1nc2ccccc2o1 assay_value=60
given_smiles=Cc1oc(-c2ccccc2)nc1CCOc1ccc(/C=C(\CC(=O)N2C[C@H]3CCCC[C@H]3C2)C(=O)O)cc1 assay_value=145
given_smiles=Cc1oc(-c2ccncc2)nc1CCOc1ccc(/C=C(\CC(=O)N2C[C@H]3CCCC[C@H]3C2)C(=O)O)cc1 assay_value=49
given_smiles=Cc1oc(C2CCCCC2)nc1CCOc1ccc(/C=C(\CC(=O)N2C[C@H]3CCCC[C@H]3C2)C(=O)O)cc1 assay_value=93

###

Catalogue of Activity readings, one per entry.
- Assay Method Text: Insulin-releasing activity in HIT-T15 cells in the presence of 16.7 mM glucose at 10 uM expressed as percent activity of nateglinide
- Assay type: functional, Cricetulus griseus
Assay Readout: Activity (%)

compound=CCc1ccc(CCOc2ccc(/C=C(\CC(=O)N3C[C@H]4CCCC[C@H]4C3)C(=O)O)cc2)nc1 assay_value=136
compound=CCc1ccc(CCOc2ccc(C[C@H](CC(=O)N3C[C@H]4CCCC[C@H]4C3)C(=O)O)cc2)nc1 assay_value=1
compound=CN(CCOc1ccc(/C=C(\CC(=O)N2C[C@H]3CCCC[C@H]3C2)C(=O)O)cc1)c1ccccn1 assay_value=60
compound="CCc1ccc(CCOc2ccc(CC3SC(=O)NC3=O)cc2)nc1 (stereo not drawn)" assay_value=10
compound="CC(C)[C@H]1CC[C@H](C(=O)N[C@H](Cc2ccccc2)C(=O)O)CC1 [NATEGLINIDE]" assay_value=100
compound=O=C(O)/C(=C\c1ccc(OCc2ccc(C(F)(F)F)cc2)cc1)CC(=O)N1C[C@H]2CCCC[C@H]2C1 assay_value=130
compound=CCc1ccc(CCOc2ccc(C[C@@H](CC(=O)N3C[C@H]4CCCC[C@H]4C3)C(=O)O)cc2)nc1 assay_value=105
compound="Cc1oc(-c2ccccc2)nc1CCOc1ccc(CC(CC(=O)N2C[C@H]3CCCC[C@H]3C2)C(=O)O)cc1 (stereo partly drawn)" assay_value=85
